System: A549
Test: Cytotoxicity against human A549 cells assessed as cell growth inhibition measured after 48 hrs by MTT assay
Assay type: functional, cell-based
Conditions: A549, 48 h
pIC50: −log10 of the molar value.
Rule: criterion met for pIC50 not less than 7, criterion not met for anything less.

-- ask // inclusive: pIC50 at least 7? input: COc1ccc(/C=C\c2cc(OC)c(OC)c(OC)c2)cc1OC(=O)C1CC(C)(C)N(O)C1(C)C (stereo unspecified)
-- reply criterion met

-- ask // inclusive: pIC50 at least 7? input: CCc1c2c(nc3ccc(OC(=O)N4CCC(N5CCCCC5)CC4)cc13)-c1cc3c(c(=O)n1C2)COC(=O)[C@]3(O)CC [IRINOTECAN]
-- reply criterion not met

-- ask // inclusive: pIC50 at least 7? input: `COc1ccc(/C=C\c2cc(OC)c(OC)c(OC)c2)cc1OC(=O)C1CC(C)(C)N(O)C(C)(C)C1`
-- reply criterion not met

Moving on to another molecule below.
-- ask // inclusive: pIC50 at least 7? input: COc1ccc(/C=C\c2cc(OC)c(OC)c(OC)c2)cc1O [COMBRETASTATIN A4]
-- reply criterion met

----------
Target: Estrogen receptor (Homo sapiens)
Sequence (P03372 whole entry): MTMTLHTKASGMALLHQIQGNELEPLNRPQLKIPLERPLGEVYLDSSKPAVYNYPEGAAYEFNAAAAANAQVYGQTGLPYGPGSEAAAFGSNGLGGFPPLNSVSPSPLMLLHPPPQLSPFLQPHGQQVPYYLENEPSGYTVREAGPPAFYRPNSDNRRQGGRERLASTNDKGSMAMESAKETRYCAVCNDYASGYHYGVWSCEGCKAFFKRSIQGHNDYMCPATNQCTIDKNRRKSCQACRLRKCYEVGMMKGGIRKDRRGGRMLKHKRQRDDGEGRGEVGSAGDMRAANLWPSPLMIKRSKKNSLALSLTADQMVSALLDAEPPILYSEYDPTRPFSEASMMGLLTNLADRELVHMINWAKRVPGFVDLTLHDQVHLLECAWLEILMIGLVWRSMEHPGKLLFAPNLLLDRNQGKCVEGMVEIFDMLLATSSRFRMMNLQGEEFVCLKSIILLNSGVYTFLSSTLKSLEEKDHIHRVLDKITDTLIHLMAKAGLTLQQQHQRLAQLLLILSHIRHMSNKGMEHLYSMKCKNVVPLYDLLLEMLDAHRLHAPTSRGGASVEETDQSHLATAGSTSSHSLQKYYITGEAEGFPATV
Experiment: Inhibition of human recombinant ERalpha expressed in baculovirus expression system measured after 20 mins by fluorescent polarisation Assay
endpoint: IC50 (nM)
Could you give me the number in nM? Just the number is fine.

-- ask State the recorded IC50 for this entry: COc1ccc(/C=C\c2cc(OC)c(OC)c(OC)c2)cc1OC(=O)N(C)CCOc1ccc(C(=C2CCC(C)CC2)c2ccc(O)cc2)cc1 (stereo unspecified)
-- reply 15

----------
Reported pIC50 values are given for each entry in this list.
System: HeLa
Assay: Cytotoxicity against human HeLa cells assessed as cell growth inhibition
Assay type: functional, cell-based
pIC50 here: minus log base 10 of the concentration, concentration in moles per litre.

Solved entries:
-- ask State the recorded pIC50 for this entry: `COc1ccc(/C=C\c2cc(OC)c(OC)c(OC)c2)cc1OC(=O)Cn1cc(F)c(=O)[nH]c1=O`
-- reply 7.51

-- ask State the recorded pIC50 for this entry: `O=c1[nH]cc(F)c(=O)[nH]1`
-- reply 6.95

-- ask State the recorded pIC50 for this entry: `COc1ccc(/C=C\c2cc(OC)c(OC)c(OC)c2)cc1O`
-- reply 6.40

More entries:
-- ask State the recorded pIC50 for this entry: `COc1ccc(/C=C\c2cc(OC)c(OC)c(OC)c2)cc1OC(=O)CCn1cc(F)c(=O)[nH]c1=O`
-- reply 7.52

----------
System: MGC-803
Test: Cytotoxicity against human MGC-803 cells assessed as cell growth inhibition
Assay type: functional, cell-based
pIC50: −log10 of the molar value.
endpoint: pIC50

Solved entries:
-- ask State the recorded pIC50 for this entry: `COc1ccc(/C=C\c2cc(OC)c(OC)c(OC)c2)cc1OC(=O)Cn1cc(F)c(=O)[nH]c1=O`
-- reply > 9.52

-- ask State the recorded pIC50 for this entry: `COc1ccc(/C=C\c2cc(OC)c(OC)c(OC)c2)cc1OC(=O)CCn1cc(F)c(=O)[nH]c1=O`
-- reply > 9.52

Kindly review the next molecule as well.
-- ask State the recorded pIC50 for this entry: `COc1ccc(/C=C\c2cc(OC)c(OC)c(OC)c2)cc1O`
-- reply 7.69

----------
Target: Estrogen receptor beta (Homo sapiens)
Sequence (Q92731 whole entry): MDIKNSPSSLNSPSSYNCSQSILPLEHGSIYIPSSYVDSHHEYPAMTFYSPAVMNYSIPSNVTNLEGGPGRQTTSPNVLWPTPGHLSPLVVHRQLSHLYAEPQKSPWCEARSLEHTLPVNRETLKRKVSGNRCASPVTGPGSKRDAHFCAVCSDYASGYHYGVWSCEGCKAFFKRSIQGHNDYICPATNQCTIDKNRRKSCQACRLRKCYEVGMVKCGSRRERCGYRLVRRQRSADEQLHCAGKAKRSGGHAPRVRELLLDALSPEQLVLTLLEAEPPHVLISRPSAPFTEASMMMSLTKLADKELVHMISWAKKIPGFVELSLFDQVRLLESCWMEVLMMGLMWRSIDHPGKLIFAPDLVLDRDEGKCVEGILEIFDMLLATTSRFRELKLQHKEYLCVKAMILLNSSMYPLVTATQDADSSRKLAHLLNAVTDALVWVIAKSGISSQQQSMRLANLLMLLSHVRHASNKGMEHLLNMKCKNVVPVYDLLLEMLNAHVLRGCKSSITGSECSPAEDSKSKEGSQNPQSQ
Assay: Inhibition of human recombinant ERbeta expressed in baculovirus expression system measured after 20 mins by fluorescent polarisation Assay
endpoint: pIC50
pIC50 here: minus log base 10 of the concentration, concentration in moles per litre.

-- ask State the recorded pIC50 for this entry: COc1ccc(/C=C\c2cc(OC)c(OC)c(OC)c2)cc1OC(=O)N(C)CCOc1ccc(C(=C2CCC(C)CC2)c2ccc(O)cc2)cc1 (stereo unspecified)
-- reply 6.94
